The measurements presented in this section are drawn from BigSolDB 2.1.

- details: in ethanol, 298.15 K
readout label: solubility (mole fraction)
Lab note: write the figure by itself, no unit.

## Task I have this compound here, `CN1CCN(C(=O)O[C@H]2c3nccnc3C(=O)N2c2ccc(Cl)cn2)CC1` , and I need its recorded solubility (mole fraction).
## Result 0.00036

---

- details: in n-propyl acetate, 303.15 K
readout label: solubility (mole fraction)
Lab note: write the figure by itself, no unit.

## Task I have this molecule here, `CN1CCN(C(=O)O[C@H]2c3nccnc3C(=O)N2c2ccc(Cl)cn2)CC1` , and I need its recorded solubility (mole fraction).
## Result 0.00153

---

- details: in isopropyl acetate, 318.15 K
readout label: solubility (mole fraction)
Lab note: write the figure by itself, no unit.

## Task I have this molecule here, `CN1CCN(C(=O)O[C@H]2c3nccnc3C(=O)N2c2ccc(Cl)cn2)CC1` , and I need its recorded solubility (mole fraction).
## Result 0.00182
